B1: TPR t1 (parent)
chain: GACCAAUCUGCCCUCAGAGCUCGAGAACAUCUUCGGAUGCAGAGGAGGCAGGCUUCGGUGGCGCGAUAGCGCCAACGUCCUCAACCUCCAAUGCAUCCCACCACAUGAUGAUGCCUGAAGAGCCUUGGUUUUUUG

Variants of: B1
Assay: polymerase ribozyme fitness, log enrichment relative to wild type (log ratio); higher = more active; in vitro selection for triplet polymerase activity

{"columns": ["Mutation Label", "polymerase ribozyme fitness (log ratio)"],
 "data": [
  ["G61C A83G", -3.02],
  ["C99U U133A", -2.99],
  ["G61C U126A", -2.98],
  ["G71A C102A", -2.99]
]}
